- tested_system: TREM2 extracellular domain (ECD) (residues 19-131, C-terminally biotinylated, deglycosylated or glycosylated) (Homo sapiens);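 note: Bio-layer interferometry in 50 mM HEPES pH 7.5 with 150 mM NaCl and 0.1% Tween, double-referenced with blank wells and unrelated-protein sensors, equilibrium response fitted versus concentration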
- Sequence (Q9NZC2 19-131): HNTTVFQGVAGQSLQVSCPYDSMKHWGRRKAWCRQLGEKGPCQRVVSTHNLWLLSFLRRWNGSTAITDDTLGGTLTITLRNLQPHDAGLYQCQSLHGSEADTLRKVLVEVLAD
- protocol_description: biochemical
- condition_summary: Human BLI (Kd; nM) (deglycosylated), Table 4B; deglycosylated human TREM2 ECD; steady-state KD, 25° C.
*1 amine or outer side, *2 acyl side, *3 side chain or, on linkers, in order; H or OH if unused. Where a SMILES comes first, the peptide text is derived from it. Bridges are numbered along the chain shown (N, C = ends). [ ]: non-standard residue; d: D form. TATA = O=C(CC[*:1])N1CN(C(=O)CC[*:2])CN(C(=O)CC[*:3])C1; Bip = N[C@@H](Cc1ccc(-c2ccccc2)cc1)C(=O)O
Below, each entry is listed alongside its reported Kd.

{"compound": "CC(=O)N[C@H]1CSCCC(=O)N2CN3CN(C2)C(=O)CCSC[C@H](NC(=O)[C@H](Cc2ccc(O)cc2)NC(=O)[C@H](CCC(=O)O)NC(=O)[C@H](CO)NC1=O)C(=O)N[C@@H](Cc1ccccc1)C(=O)N[C@@H](Cc1c[nH]c2ccccc12)C(=O)N1CCC[C@H]1C(=O)N[C@@H](Cc1ccccc1)C(=O)N[C@@H](Cc1ccc(O)cc1)C(=O)N[C@@H](Cc1ccccc1)C(=O)N[C@H](C(N)=O)CSCCC3=O [BCY20576, Ac-(SEQ ID NO: 102)] (Ac-CSEYCFWPFYFC-NH2; linker 1-5-12 via TATA)", "Kd [nM]": 1350}
{"compound": "CC(=O)N[C@H]1CSCCC(=O)N2CN3CN(C2)C(=O)CCSC[C@H](NC(=O)[C@H](Cc2ccc(O)cc2)NC(=O)[C@H](CCC(=O)O)NC(=O)[C@H](CO)NC1=O)C(=O)N[C@@H](Cc1ccccc1F)C(=O)N[C@@H](Cc1c[nH]c2ccccc12)C(=O)N1CCC[C@H]1C(=O)N[C@@H](Cc1ccccc1)C(=O)N[C@@H](Cc1ccc(O)cc1)C(=O)N[C@@H](Cc1c[nH]cn1)C(=O)N[C@H](C(N)=O)CSCCC3=O [BCY20051, Ac-(SEQ ID NO: 51)]", "Kd [nM]": 2030}
{"compound": "CC(=O)N[C@H]1CSCCC(=O)N2CN3CN(C2)C(=O)CCSC[C@H](NC(=O)[C@H](Cc2ccc(O)cc2)NC(=O)[C@H](CCC(=O)O)NC(=O)[C@H](CO)NC1=O)C(=O)N[C@@H](Cc1ccccc1)C(=O)N[C@@H](Cc1c[nH]c2ccccc12)C(=O)N1CCC[C@H]1C(=O)N[C@@H](Cc1ccccc1)C(=O)N[C@@H](Cc1ccc(O)cc1)C(=O)N[C@@H](CCC(N)=O)C(=O)N[C@H](C(N)=O)CSCCC3=O [BCY20572, Ac-(SEQ ID NO: 98)] (Ac-CSEYCFWPFYQC-NH2; linker 1-5-12 via TATA)", "Kd [nM]": 1060}
{"compound": "CC(=O)N[C@H]1CSCCC(=O)N2CN3CN(C2)C(=O)CCSC[C@H](NC(=O)[C@H](Cc2ccc(O)cc2)NC(=O)[C@H](CCC(=O)O)NC(=O)[C@H](CO)NC1=O)C(=O)N[C@@H](Cc1ccccc1)C(=O)N[C@@H](Cc1c[nH]c2ccccc12)C(=O)N1CCC[C@H]1C(=O)N[C@@H](Cc1ccc(-c2ccccc2)cc1)C(=O)N[C@@H](Cc1ccc(O)cc1)C(=O)N[C@@H](Cc1c[nH]cn1)C(=O)N[C@H](C(N)=O)CSCCC3=O [BCY20075, Ac-(SEQ ID NO: 71)] (Ac-CSEYCFWP[Bip]YHC-NH2; linker 1-5-12 via TATA)", "Kd [nM]": 2400}
{"compound": "CC(=O)N[C@H]1CSCCC(=O)N2CN3CN(C2)C(=O)CCSC[C@H](NC(=O)[C@H](Cc2ccc(O)cc2)NC(=O)[C@H](CCC(=O)O)NC(=O)[C@@H](C)NC1=O)C(=O)N[C@@H](Cc1ccccc1)C(=O)N[C@@H](Cc1c[nH]c2ccccc12)C(=O)N1CCC[C@H]1C(=O)N[C@@H](Cc1ccccc1)C(=O)N[C@@H](Cc1ccc(O)cc1)C(=O)N[C@@H](Cc1c[nH]cn1)C(=O)N[C@H](C(N)=O)CSCCC3=O [BCY20086, Ac-(SEQ ID NO: 79)]", "Kd [nM]": 17900}
